Data credit: patent US10053417B2

TEST_TARGET: human NEP (Homo sapiens)
Construct: 1182-ZN
TEST: In vitro enzyme inhibition assay, inhibitor potency at human NEP (Assay 1)
TEST_CONTEXT: recombinant human NEP; fluorogenic peptide substrate 10 μM; 37° C.; values given as ranges
pKi: −log10 of the molar value.
Reported pKi values are given for each entry in this list.
OUTCOME_MEASURE: pKi

{"COMPOUND": "CN1CCN(C(=O)C(=O)N[C@H](Cc2ccc(-c3cccc(Cl)c3)cc2)C[C@@H](O)C(=O)O)CC1 [Example 4-34]", "OBSERVED_MEASUREMENT": "7.50 to 8.00"}
{"COMPOUND": "COCC(=O)N[C@H](Cc1ccc(-c2cccc(Cl)c2)cc1)C[C@@H](O)C(=O)O [Example 10-2]", "OBSERVED_MEASUREMENT": "8.00 to 9.00"}
{"COMPOUND": "C[C@@](CO)(C[C@@H](Cc1ccc(-c2cccc(Cl)c2)cc1)NC(=O)COCc1ccccc1)C(=O)O [Example 12]", "OBSERVED_MEASUREMENT": "7.50 to 8.00"}
{"COMPOUND": "O=C(N[C@H](Cc1ccc(-c2cccc(Cl)c2)cc1)C[C@@H](O)C(=O)O)C(=O)N1CC(F)(F)C1 [Example 4-14]", "OBSERVED_MEASUREMENT": "7.50 to 8.00"}
{"COMPOUND": "O=C(N[C@H](Cc1ccc(-c2cccc(Cl)c2)cc1)C[C@@H](O)C(=O)O)C(=O)N1CCC(C(=O)O)CC1 [Example 4-27]", "OBSERVED_MEASUREMENT": "8.00 to 9.00"}
{"COMPOUND": "O=C(NNc1ccc([N+](=O)[O-])cc1[N+](=O)[O-])C(=O)N[C@H](Cc1ccc(-c2cccc(Cl)c2)cc1)C[C@@H](O)C(=O)O [Example 5]", "OBSERVED_MEASUREMENT": "≥ 9.00"}
{"COMPOUND": "O=C(N[C@H](Cc1ccc(-c2cccc(Cl)c2)cc1)C[C@@H](O)C(=O)O)C(=O)N1CC(O)C1 [Example 4-13]", "OBSERVED_MEASUREMENT": "8.00 to 9.00"}
{"COMPOUND": "COCC(=O)N[C@H](Cc1ccc(-c2cccc(Cl)c2)cc1)C[C@@](C)(CO)C(=O)O [Example 11]", "OBSERVED_MEASUREMENT": "8.00 to 9.00"}
{"COMPOUND": "O=C(N[C@H](Cc1ccc(-c2cccc(Cl)c2)cc1)C[C@@H](O)C(=O)O)C(=O)N1CCCO1 [Example 4-48]", "OBSERVED_MEASUREMENT": "8.00 to 9.00"}
{"COMPOUND": "CC(C)CNNC(=O)C(=O)N[C@H](Cc1ccc(-c2cccc(Cl)c2)cc1)C[C@@H](O)C(=O)O [Example 6-2]", "OBSERVED_MEASUREMENT": "7.50 to 8.00"}
{"COMPOUND": "O=C(NNC(=O)C(=O)N[C@H](Cc1ccc(-c2cccc(Cl)c2)cc1)C[C@@H](O)C(=O)O)OCc1ccccc1 [Example 8-1]", "OBSERVED_MEASUREMENT": "7.50 to 8.00"}
{"COMPOUND": "O=C(NNC(=O)c1ccccc1O)C(=O)N[C@H](Cc1ccc(-c2cccc(Cl)c2)cc1)C[C@@H](O)C(=O)O [Example 7]", "OBSERVED_MEASUREMENT": "≥ 9.00"}
{"COMPOUND": "CONC(=O)C(=O)N[C@H](Cc1ccc(-c2cccc(Cl)c2)cc1)C[C@@H](O)C(=O)O [Example 4-6]", "OBSERVED_MEASUREMENT": "8.00 to 9.00"}
{"COMPOUND": "O=C(COc1ccccc1)N[C@H](Cc1ccc(-c2cccc(Cl)c2)cc1)C[C@@H](O)C(=O)O [Example 10-7]", "OBSERVED_MEASUREMENT": "7.50 to 8.00"}

* * *

TEST_TARGET: human NEP (Homo sapiens)
Construct: 1182-ZN
TEST: In vitro enzyme inhibition assay, inhibitor potency at human NEP (Assay 1)
TEST_CONTEXT: recombinant human NEP; fluorogenic peptide substrate 10 μM; 37° C.; values given as ranges
OUTCOME_MEASURE: Ki

{"COMPOUND": "O=C(N[C@H](Cc1ccc(-c2cccc(Cl)c2)cc1)C[C@@H](O)C(=O)O)C(=O)N1CCC(CCO)CC1", "TEST_TARGET": "human NEP (Homo sapiens)", "OBSERVED_MEASUREMENT": "1 to 10 nM"}
{"COMPOUND": "CN(C)C(=O)C(=O)N[C@H](Cc1ccc(-c2cccc(Cl)c2)cc1)C[C@@H](O)C(=O)O", "TEST_TARGET": "human NEP (Homo sapiens)", "OBSERVED_MEASUREMENT": "10 to 31.6 nM"}
{"COMPOUND": "O=C(NNc1cc(O)ncn1)C(=O)N[C@H](Cc1ccc(-c2cccc(Cl)c2)cc1)C[C@@H](O)C(=O)O", "TEST_TARGET": "human NEP (Homo sapiens)", "OBSERVED_MEASUREMENT": "1 to 10 nM"}
{"COMPOUND": "O=C(N[C@H](Cc1ccc(-c2cccc(Cl)c2)cc1)C[C@@H](O)C(=O)O)C(=O)NN1CCOCC1", "TEST_TARGET": "human NEP (Homo sapiens)", "OBSERVED_MEASUREMENT": "10 to 31.6 nM"}
{"COMPOUND": "O=C(NNC(=O)c1ccco1)C(=O)N[C@H](Cc1ccc(-c2cccc(Cl)c2)cc1)C[C@@H](O)C(=O)O", "TEST_TARGET": "human NEP (Homo sapiens)", "OBSERVED_MEASUREMENT": "1 to 10 nM"}
{"COMPOUND": "C[C@@H]1CO[C@@H](C)CN1C(=O)C(=O)N[C@H](Cc1ccc(-c2cccc(Cl)c2)cc1)C[C@@H](O)C(=O)O", "TEST_TARGET": "human NEP (Homo sapiens)", "OBSERVED_MEASUREMENT": "1 to 10 nM"}
{"COMPOUND": "N#Cc1ccccc1N1CCN(C(=O)C(=O)N[C@H](Cc2ccc(-c3cccc(Cl)c3)cc2)C[C@@H](O)C(=O)O)CC1", "TEST_TARGET": "human NEP (Homo sapiens)", "OBSERVED_MEASUREMENT": "10 to 31.6 nM"}
{"COMPOUND": "O=C(NNC(=O)c1ccc(Cl)nc1)C(=O)N[C@H](Cc1ccc(-c2cccc(Cl)c2)cc1)C[C@@H](O)C(=O)O", "TEST_TARGET": "human NEP (Homo sapiens)", "OBSERVED_MEASUREMENT": "1 to 10 nM"}
{"COMPOUND": "O=C(NNc1ccccc1)C(=O)N[C@H](Cc1ccc(-c2cccc(Cl)c2)cc1)C[C@@H](O)C(=O)O", "TEST_TARGET": "human NEP (Homo sapiens)", "OBSERVED_MEASUREMENT": "1 to 10 nM"}
{"COMPOUND": "O=C(N[C@H](Cc1ccc(-c2cccc(Cl)c2)cc1)C[C@@H](O)C(=O)O)C(=O)N1CCCC(C(=O)O)C1 (some centres unmarked)", "TEST_TARGET": "human NEP (Homo sapiens)", "OBSERVED_MEASUREMENT": "1 to 10 nM"}
{"COMPOUND": "O=C(NNC1=NCCN1)C(=O)N[C@H](Cc1ccc(-c2cccc(Cl)c2)cc1)C[C@@H](O)C(=O)O", "TEST_TARGET": "human NEP (Homo sapiens)", "OBSERVED_MEASUREMENT": "10 to 31.6 nM"}
{"COMPOUND": "O=C(N[C@H](Cc1ccc(-c2cccc(Cl)c2)cc1)C[C@@H](O)C(=O)O)C(=O)N1CCCC[C@@H]1CO", "TEST_TARGET": "human NEP (Homo sapiens)", "OBSERVED_MEASUREMENT": "≤ 1 nM"}
{"COMPOUND": "O=C(N[C@H](Cc1ccc(-c2cccc(Cl)c2)cc1)C[C@@H](O)C(=O)O)C(=O)N1CCOC(CO)C1 (some centres unmarked)", "TEST_TARGET": "human NEP (Homo sapiens)", "OBSERVED_MEASUREMENT": "1 to 10 nM"}
{"COMPOUND": "CC(C)CC(=O)C(=O)N[C@H](Cc1ccc(-c2cccc(Cl)c2)cc1)C[C@@H](O)C(=O)O", "TEST_TARGET": "human NEP (Homo sapiens)", "OBSERVED_MEASUREMENT": "1 to 10 nM"}

* * *

TEST_TARGET: human NEP (Homo sapiens, UniProt P08473)
Construct: 1182-ZN
Sequence (P08473 52-750 limits assumed): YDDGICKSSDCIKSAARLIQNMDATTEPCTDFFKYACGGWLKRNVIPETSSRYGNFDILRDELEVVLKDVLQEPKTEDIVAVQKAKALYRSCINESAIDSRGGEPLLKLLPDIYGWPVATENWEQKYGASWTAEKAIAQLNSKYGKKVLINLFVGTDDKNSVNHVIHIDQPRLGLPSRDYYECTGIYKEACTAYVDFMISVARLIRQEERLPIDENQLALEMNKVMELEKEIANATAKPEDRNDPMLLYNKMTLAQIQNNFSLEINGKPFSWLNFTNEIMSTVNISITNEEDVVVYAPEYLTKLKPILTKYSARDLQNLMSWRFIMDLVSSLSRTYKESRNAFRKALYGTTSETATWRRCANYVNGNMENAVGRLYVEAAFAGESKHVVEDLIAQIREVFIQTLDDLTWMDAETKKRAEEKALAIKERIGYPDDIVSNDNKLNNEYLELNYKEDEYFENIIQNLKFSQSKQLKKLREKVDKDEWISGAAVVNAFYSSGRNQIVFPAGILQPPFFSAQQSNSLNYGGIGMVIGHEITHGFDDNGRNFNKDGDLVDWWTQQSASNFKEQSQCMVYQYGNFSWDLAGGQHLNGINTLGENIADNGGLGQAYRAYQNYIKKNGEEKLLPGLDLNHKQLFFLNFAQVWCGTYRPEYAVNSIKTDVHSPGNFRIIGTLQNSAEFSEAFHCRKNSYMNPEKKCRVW
TEST: In vitro enzyme inhibition assay, inhibitor potency at human NEP (Assay 1)
TEST_CONTEXT: recombinant human NEP; fluorogenic peptide substrate 10 μM; 37° C.; values given as ranges
pKi: −log10 of the molar value.

{"COMPOUND": "CNNC(=O)C(=O)N[C@H](Cc1ccc(-c2cccc(Cl)c2)cc1)C[C@@H](O)C(=O)O", "pKi": "7.50 to 8.00"}
{"COMPOUND": "O=C(N[C@H](Cc1ccc(-c2cccc(Cl)c2)cc1)C[C@@H](O)C(=O)O)C(=O)N1CC(O)CO1 (stereo partly shown)", "pKi": "8.00 to 9.00"}
{"COMPOUND": "CC1(O)CCN(C(=O)C(=O)N[C@H](Cc2ccc(-c3cccc(Cl)c3)cc2)C[C@@H](O)C(=O)O)CC1", "pKi": "8.00 to 9.00"}
{"COMPOUND": "C[C@@H]1COC[C@H](C)N1C(=O)C(=O)N[C@H](Cc1ccc(-c2cccc(Cl)c2)cc1)C[C@@H](O)C(=O)O", "pKi": "7.50 to 8.00"}
{"COMPOUND": "CN(C)C(=O)N1CCN(C(=O)C(=O)N[C@H](Cc2ccc(-c3cccc(Cl)c3)cc2)C[C@@H](O)C(=O)O)CC1", "pKi": "7.50 to 8.00"}
{"COMPOUND": "O=C(N[C@H](Cc1ccc(-c2cccc(Cl)c2)cc1)C[C@@H](O)C(=O)O)C(=O)N1CC2(COC2)C1", "pKi": "7.50 to 8.00"}
{"COMPOUND": "O=C(N[C@H](Cc1ccc(-c2cccc(Cl)c2)cc1)C[C@@H](O)C(=O)O)C(=O)N1CCN(C(=O)c2ccco2)CC1", "pKi": "8.00 to 9.00"}
